experiment: Toxicity liver stage against HepG2, at 10uM; type: cell-based; set-up: test concentration 10 uM, cell line HepG2-A16-CD81EGFP; conditions: human, HepG2-A16-CD81EGFP cells; read-out: INHIBITION
EXPERIMENTAL_READOUT: cytotoxicity at 10 µM (%)
API: value field is a number in %; no unit string.

CN(C)c1ccc(NC(=O)NCc2cccs2)cn1 = -1.15
CCn1c(CNC(=O)Nc2nc(C)c(C)o2)nc2ccccc21 = -5.3
Cc1nc(CN2CCC3(CCCN(Cc4cnn(C)c4)C3)C2=O)cs1 (stereo not drawn) = -5.74
CN(C1CCCCC1)S(=O)(=O)NCC1Cc2ccccc2O1 (stereo not drawn) = 4.19
CC1CCN(C(=O)c2cn(-c3cc(N4CCOCC4)ncn3)cn2)CC1 = 1.75

Kindly note the recorded cytotoxicity at 10 µM for CNC(=O)CCc1cc(C)nc(C2CCN(C(=O)CN(C)C)CC2)c1 , which is -3.48

Kindly note the recorded cytotoxicity at 10 µM for CN1[C@H](Cn2cncn2)C[C@@H]2CN(Cc3ccsc3)CC[C@@H]21 , which is -118

Kindly note the recorded cytotoxicity at 10 µM for Cc1ccc(N2CCCN(C(=O)C(C)OCC3CC3)CC2)nn1 (stereo not drawn) , which is 0.0479

Kindly note the recorded cytotoxicity at 10 µM for CC(C)c1noc(-c2ccc(N(C)C3CCOCC3)nc2)n1 , which is -17.6

Kindly note the recorded cytotoxicity at 10 µM for Cc1ccc(CN2Cc3c(C(=O)N4CCN(C)CC4)nn(C)c3C2)s1 , which is -6.77

---

test: Toxicity liver stage against HepG2, at 10uM; assay type: cell-based; parameters: test concentration 10 uM, cell line HepG2-A16-CD81EGFP; settings: human, HepG2-A16-CD81EGFP cells; read-out: INHIBITION
cytotoxicity at 10 µM values for the compounds below.
API: value field is a number in %; no unit string.

// below: answered compounds
CCOC(C)c1nc(Cn2cccn2)cs1 (stereo unspecified) = 1.04
O=C1CO[C@@H]2CN(S(=O)(=O)c3ccc(F)cc3)C[C@H]2N1 = 4.59
CCCn1nccc1NC(=O)CN1CCCC1Cn1cc(C)cn1 (stereo unspecified) = -8.09
COc1ncccc1CN1CCC2[C@H]1CCN2CCN(C)C (stereo partly specified) = 2.77
CC[C@H]1CN(C(=O)c2cccc(-n3cnnc3)n2)CC[C@@]1(C)O = 3.66

Kindly note the recorded cytotoxicity at 10 µM for CC1=NOC(C(=O)N2CCC(O)(c3ccc4nc(C)ccc4c3)CC2)C1 (stereo unspecified) , which is 2.12

---

assay: Toxicity liver stage against HepG2, at 10uM; assay type: cell-based; parameters: test concentration 10 uM, cell line HepG2-A16-CD81EGFP; settings: human, HepG2-A16-CD81EGFP cells; read-out: INHIBITION
EXPERIMENTAL_READOUT: cytotoxicity at 10 µM (%)
API: value field is a number in %; no unit string.

// below: answered compounds
CCSCc1nc(O)c2nnn(C3CCN(Cc4ccco4)CC3)c2n1 = 8.79
COc1ccc(Cl)cc1CS(=O)(=O)Cc1nc(C2CC2)no1 = 3.43
Cc1ccc(C(=O)N2C[C@@H]3COC[C@]3(COc3cccnc3)C2)cn1 = -3.91
COc1ncnc(N)c1CNCCOc1ccccc1Cl = 6.24
Cc1ccccc1-c1cc(NC(=O)NC2CCC(O)CC2)n(CCO)n1 (stereo not drawn) = 1.09

Kindly note the recorded cytotoxicity at 10 µM for Cc1ccc(CN2CCOC3(CCCN(c4cccc(F)c4)C3)C2)o1 (stereo not drawn) , which is -70

Kindly note the recorded cytotoxicity at 10 µM for CC(=O)N1CCN(c2cc(-c3ccccc3)nc3c(C)c(C)nn23)CC1 , which is -13.1

Kindly note the recorded cytotoxicity at 10 µM for Cc1cc(C)nc(N2CCN(C(=O)c3cc(Cl)c[nH]3)CC2)n1 , which is -4

Kindly note the recorded cytotoxicity at 10 µM for CC(C)c1cc(NC(=O)CNC2CCCN(c3cccnn3)C2)on1 (stereo not drawn) , which is -1.79

---

experiment: Toxicity liver stage against HepG2, at 10uM; type: cell-based; set-up: test concentration 10 uM, cell line HepG2-A16-CD81EGFP; conditions: human, HepG2-A16-CD81EGFP cells; read-out: INHIBITION
EXPERIMENTAL_READOUT: cytotoxicity at 10 µM (%)
API: value field is a number in %; no unit string.

// below: answered compounds
CN(CCOc1ccc(F)cc1)S(=O)(=O)c1cnn(C)c1 = -3.23
CCCN1CCN(C(=O)c2cccnc2-n2cncn2)CC1 = 5.28
CCn1c(C)cc(C(=O)N2CCC(Nc3ccc(C)nn3)CC2)c1C = -5.52
CN(C)CCn1c2c(ccc1=O)CCN(Cc1ccncc1)CC2 = 3.97
CCCNC(=O)CCc1ccnc2ccccc12 = 5.25

Query compound follows.
Kindly note the recorded cytotoxicity at 10 µM for COc1ccc(C2CCCN2C(=O)c2ccc(=O)n(C)c2)cc1OC (stereo unspecified) , which is 11.3

---

assay: Toxicity liver stage against HepG2, at 10uM; format: cell-based; set-up: test concentration 10 uM, cell line HepG2-A16-CD81EGFP; settings: human, HepG2-A16-CD81EGFP cells; read-out: INHIBITION
EXPERIMENTAL_READOUT: cytotoxicity at 10 µM (%)
API: value field is a number in %; no unit string.

Cc1nc(N(C)CCCc2nccn2C)c2nc(C)oc2n1 = 5.82
CCCSCC(=O)N1C[C@@H](NC(C)=O)[C@H](c2ccc(OC)cc2)C1 = 7.41
C[C@@H]1C[C@@H]2CCN(Cc3nccs3)C[C@H]2O1 = -3.15
CC(C)c1nc(CN(C)C(=O)c2ccc3c(c2)OCC(=O)N3)cs1 = -4.15
CNc1snc(C)c1C(=O)N1CCCC(n2ccnc2C(C)C)C1 (stereo unspecified) = 1.66

Kindly note the recorded cytotoxicity at 10 µM for Cc1cccc2c(=O)c(C(=O)N3CCCC4(CN(C)C(=O)O4)C3)c[nH]c12 (stereo unspecified) , which is 10.5

---

assay: Toxicity liver stage against HepG2, at 10uM; format: cell-based; design: test concentration 10 uM, cell line HepG2-A16-CD81EGFP; settings: human, HepG2-A16-CD81EGFP cells; read-out: INHIBITION
cytotoxicity at 10 µM values for the compounds below.
API: value field is a number in %; no unit string.

CC(C)CC(=O)N(C)CC(=O)Nc1ccc(Br)cn1 = -1.43

Kindly note the recorded cytotoxicity at 10 µM for CSc1ncccc1C(=O)NCCC(O)c1cccs1 (configuration not stated) , which is -4.68

Kindly note the recorded cytotoxicity at 10 µM for CN(CCCc1cnn(C)c1)Cc1cc2n(n1)CCCNC2 , which is 6.49

Kindly note the recorded cytotoxicity at 10 µM for COc1cn(CC(N)=O)c(CSc2nc(C)cc(C)n2)cc1=O , which is -30.2

Kindly note the recorded cytotoxicity at 10 µM for O=C(Cc1cccc(O)c1)N1CCCC(OCc2cccnc2)C1 (configuration not stated) , which is 1.5

Kindly note the recorded cytotoxicity at 10 µM for CNc1nc(C(=O)N2CCCN(c3ccnc(C)c3)CC2)cs1 , which is 6.37

Kindly note the recorded cytotoxicity at 10 µM for Fc1cccc(N2CCOC3(CCCN(c4cnccn4)C3)C2)c1 (configuration not stated) , which is 5.89

Kindly note the recorded cytotoxicity at 10 µM for CCc1nc(C(=O)N2CCCC2)nn1-c1ccccc1Cl , which is -3.17

Kindly note the recorded cytotoxicity at 10 µM for Cc1c[nH]nc1C1CCN(C(=O)C2CCCC2)C1 (configuration not stated) , which is 0.631

Kindly note the recorded cytotoxicity at 10 µM for COCCNC(=O)[C@H]1CN(Cc2nccs2)C[C@H]2OCC[C@@H]12 , which is -11.6

Kindly note the recorded cytotoxicity at 10 µM for COc1ccc2nc3n(c2c1)[C@@H](CNC(=O)c1cncnc1)COC3 , which is 0.488

Kindly note the recorded cytotoxicity at 10 µM for Cc1ccc(NC(=O)NC(C)(C)c2noc(C)n2)cc1 , which is 12.6

---

assay: Toxicity liver stage against HepG2, at 10uM; type: cell-based; set-up: test concentration 10 uM, cell line HepG2-A16-CD81EGFP; conditions: human, HepG2-A16-CD81EGFP cells; read-out: INHIBITION
EXPERIMENTAL_READOUT: cytotoxicity at 10 µM (%)
API: value field is a number in %; no unit string.

// below: answered molecules
CCCSCC(=O)NCc1cccc(CN(C)CC)c1 = -0.823
Cc1occc(=O)c1OCc1noc(C(=O)NC(C)C)n1 = 4.6
COCCN(C)CC1CCCN1S(=O)(=O)c1cc(C)oc1C (configuration not stated) = 0.729
Cc1cccc(C(=O)NCc2ccc(N3CCCCC3)nc2)n1 = 4.26
N#Cc1ccc(CN(CC(N)=O)C2CCCC2)cc1 = 38
Cn1cc(Cl)c(CN(Cc2ccsc2)CC2CCCO2)n1 (configuration not stated) = -3.84
CC(C)(C)c1cnc(CN2CCCCC2Cn2cccn2)o1 (configuration not stated) = -7.85
CCN1CCOC(CNCc2csc(C)n2)C1 (configuration not stated) = -5.13

Kindly note the recorded cytotoxicity at 10 µM for CSCCC(NC(=O)c1nc(SC)ncc1Cl)C(=O)O (configuration not stated) , which is -8.77

Kindly note the recorded cytotoxicity at 10 µM for CN(C(=O)c1ccc(S(=O)(=O)NC(C)(C)C)cc1)C1(C#N)CCC1 , which is 3.07

Kindly note the recorded cytotoxicity at 10 µM for Cc1cnn(Cc2cc(F)ccc2F)c1NC(=O)NC1CC1 , which is 16.9

Kindly note the recorded cytotoxicity at 10 µM for Cc1nn(CC(=O)N2CCN(c3ncccn3)CC2)c(C)c1Cl , which is 0.215
